// provenance: paper PMC10940605

Test system: IGROV1
Assay: NCI-60 SRB screen
Assay type: cell-based
Conditions: Homo sapiens, IGROV-1; IGROV1, 10^–5 Molar; read-out: Percent growth inhibition
Label yes when inhibition at 10 µM >= 30%; otherwise no.

These recorded examples may help you get a feel for the data.
CCn1cc(C(=O)NN=Cc2ccc(Br)cc2)c(=O)c2cc(F)c(N3CCNC(C)C3)c(F)c21 (stereo not shown) | no
CCn1cc(C(=O)NN=Cc2cccs2)c(=O)c2cc(F)c(N3CCNC(C)C3)c(F)c21 (stereo not shown) | yes
CCn1cc(C(=O)O)c(=O)c2cc(F)c(N3CCN(C(=O)c4ccccc4)C(C)C3)c(F)c21 (stereo not shown) | no
CCn1cc(C(=O)O)c(=O)c2cc(F)c(N3CCN(C(=O)c4ccc(Br)cc4)C(C)C3)c(F)c21 (stereo not shown) | no
CCn1cc(C(=O)NN=Cc2cccnc2)c(=O)c2cc(F)c(N3CCNC(C)C3)c(F)c21 (stereo not shown) | yes

Decide: is the reported value of inhibition at 10 µM for CCn1cc(C(=O)O)c(=O)c2cc(F)c(N3CCN(C(=O)c4ccc(Cl)cc4)C(C)C3)c(F)c21 (stereo not shown) equal to or greater than 30%?
no
